System: Klebsiella pneumoniae
Test: Antibacterial activity against Klebsiella pneumoniae at 250 ug/ml after 48 hrs by agar well diffusion technique
Format: functional
Details: read-out: IZ
Use 1 (yes) when the recorded zone of inhibition at 250 µg/mL is no lower than 10 mm; use 0 (no) when it is lower.

[[record]]
compound = "COc1cc(/C=C/C(=O)c2ccc(N3CCNCC3)cc2)cc(OC)c1OC"
testedon = "Klebsiella pneumoniae"
cat = "0 (no)"

[[record]]
compound = "O=C(/C=C/c1cccc([N+](=O)[O-])c1)c1ccc(N2CCNCC2)cc1"
testedon = "Klebsiella pneumoniae"
cat = "1 (yes)"

[[record]]
compound = "O=C(/C=C/c1ccccc1)c1ccc(N2CCNCC2)cc1"
testedon = "Klebsiella pneumoniae"
cat = "1 (yes)"

[[record]]
compound = "Cc1ccc(/C=C/C(=O)c2ccc(N3CCNCC3)cc2)cc1"
testedon = "Klebsiella pneumoniae"
cat = "1 (yes)"

[[record]]
compound = "O=C(O)c1cn(C2CC2)c2cc(N3CCNCC3)c(F)cc2c1=O [CIPROFLOXACIN]"
testedon = "Klebsiella pneumoniae"
cat = "1 (yes)"

[[record]]
compound = "COc1cc(/C=C/C(=O)c2cc(Cl)sc2Cl)cc(OC)c1OC"
testedon = "Klebsiella pneumoniae"
cat = "0 (no)"

[[record]]
compound = "O=C(/C=C/C=C/c1ccccc1)c1cc(Cl)sc1Cl"
testedon = "Klebsiella pneumoniae"
cat = "0 (no)"

[[record]]
compound = "COc1ccc(/C=C/C(=O)c2ccc(N3CCNCC3)cc2)cc1"
testedon = "Klebsiella pneumoniae"
cat = "1 (yes)"

[[record]]
compound = "O=C(/C=C/c1cccc([N+](=O)[O-])c1)c1cc(Cl)sc1Cl"
testedon = "Klebsiella pneumoniae"
cat = "1 (yes)"

[[record]]
compound = "O=C(/C=C/C=C/c1ccccc1)c1ccc(N2CCNCC2)cc1"
testedon = "Klebsiella pneumoniae"
cat = "0 (no)"

[[record]]
compound = "COc1ccc(/C=C/C(=O)c2cc(Cl)sc2Cl)cc1"
testedon = "Klebsiella pneumoniae"
cat = "1 (yes)"

[[record]]
compound = "O=C(/C=C/c1ccc(Cl)cc1)c1cc(Cl)sc1Cl"
testedon = "Klebsiella pneumoniae"
cat = "0 (no)"

[[record]]
compound = "Cc1cccc(/C=C/C(=O)c2ccc(N3CCNCC3)cc2)c1"
testedon = "Klebsiella pneumoniae"
cat = "1 (yes)"

[[record]]
compound = "O=C(/C=C/c1ccc(Cl)cc1)c1ccc(N2CCNCC2)cc1"
testedon = "Klebsiella pneumoniae"
cat = "1 (yes)"

[[record]]
compound = "O=C(/C=C/c1ccccc1)c1cc(Cl)sc1Cl"
testedon = "Klebsiella pneumoniae"
cat = "1 (yes)"

[[record]]
compound = "Cc1ccc(/C=C/C(=O)c2cc(Cl)sc2Cl)cc1"
testedon = "Klebsiella pneumoniae"
cat = "0 (no)"


###

System: Pichia kudriavzevii
Assay: Antifungal activity against Candida krusei GO3 at 250 ug/ml after 48 hrs by agar well diffusion technique
Type: functional
Conditions: read-out: IZ
quantityMeasured: zone of inhibition at 250 µg/mL (mm)

[[record]]
molsmiles = "COc1cc(/C=C/C(=O)c2ccc(N3CCNCC3)cc2)cc(OC)c1OC"
quantitymeasured = "zone of inhibition at 250 µg/mL"
resultunits = "mm"
observedresult = 12

[[record]]
molsmiles = "O=C(/C=C/c1ccccc1)c1cc(Cl)sc1Cl"
quantitymeasured = "zone of inhibition at 250 µg/mL"
resultunits = "mm"
observedresult = 26

[[record]]
molsmiles = "Cc1cccc(/C=C/C(=O)c2ccc(N3CCNCC3)cc2)c1"
quantitymeasured = "zone of inhibition at 250 µg/mL"
resultunits = "mm"
observedresult = 24

[[record]]
molsmiles = "O=C(/C=C/C=C/c1ccccc1)c1ccc(N2CCNCC2)cc1"
quantitymeasured = "zone of inhibition at 250 µg/mL"
resultunits = "mm"
observedresult = 14

[[record]]
molsmiles = "O=C(/C=C/c1ccccc1)c1ccc(N2CCNCC2)cc1"
quantitymeasured = "zone of inhibition at 250 µg/mL"
resultunits = "mm"
observedresult = 24

[[record]]
molsmiles = "Cc1ccc(/C=C/C(=O)c2cc(Cl)sc2Cl)cc1"
quantitymeasured = "zone of inhibition at 250 µg/mL"
resultunits = "mm"
observedresult = 10

[[record]]
molsmiles = "COc1ccc(/C=C/C(=O)c2ccc(N3CCNCC3)cc2)cc1"
quantitymeasured = "zone of inhibition at 250 µg/mL"
resultunits = "mm"
observedresult = 14

[[record]]
molsmiles = "OC(Cn1cncn1)(Cn1cncn1)c1ccc(F)cc1F"
quantitymeasured = "zone of inhibition at 250 µg/mL"
resultunits = "mm"
observedresult = 29

[[record]]
molsmiles = "O=C(/C=C/c1ccc(Cl)cc1)c1ccc(N2CCNCC2)cc1"
quantitymeasured = "zone of inhibition at 250 µg/mL"
resultunits = "mm"
observedresult = 20

[[record]]
molsmiles = "Cc1cccc(/C=C/C(=O)c2cc(Cl)sc2Cl)c1"
quantitymeasured = "zone of inhibition at 250 µg/mL"
resultunits = "mm"
observedresult = 22

[[record]]
molsmiles = "Cc1ccc(/C=C/C(=O)c2ccc(N3CCNCC3)cc2)cc1"
quantitymeasured = "zone of inhibition at 250 µg/mL"
resultunits = "mm"
observedresult = 22


###

Tested on: Pichia kudriavzevii
Test: Antifungal activity against Candida krusei GO3 at 250 ug/ml after 48 hrs by agar well diffusion technique
Assay type: functional
Settings: read-out: IZ
Measured zone of inhibition at 250 µg/mL, listed per entry.
quantityMeasured: zone of inhibition at 250 µg/mL (mm)

[[record]]
molsmiles = "COc1ccc(/C=C/C(=O)c2cc(Cl)sc2Cl)cc1"
observedresult = 18

[[record]]
molsmiles = "O=C(/C=C/c1cccc([N+](=O)[O-])c1)c1cc(Cl)sc1Cl"
observedresult = 12

[[record]]
molsmiles = "O=C(/C=C/c1ccc(Cl)cc1)c1cc(Cl)sc1Cl"
observedresult = 22

[[record]]
molsmiles = "O=C(/C=C/C=C/c1ccccc1)c1cc(Cl)sc1Cl"
observedresult = 16

[[record]]
molsmiles = "COc1cc(/C=C/C(=O)c2cc(Cl)sc2Cl)cc(OC)c1OC"
observedresult = 22

[[record]]
molsmiles = "O=C(/C=C/c1cccc([N+](=O)[O-])c1)c1ccc(N2CCNCC2)cc1"
observedresult = 18


###

Test system: Proteus vulgaris
Experiment: Antibacterial activity against Proteus vulgaris at 250 ug/ml after 48 hrs by agar well diffusion technique
Assay type: functional
Details: read-out: IZ
quantityMeasured: zone of inhibition at 250 µg/mL (mm)

[[record]]
molsmiles = "O=C(/C=C/c1ccc(Cl)cc1)c1cc(Cl)sc1Cl"
quantitymeasured = "zone of inhibition at 250 µg/mL"
resultunits = "mm"
observedresult = 14

[[record]]
molsmiles = "Cc1cccc(/C=C/C(=O)c2ccc(N3CCNCC3)cc2)c1"
quantitymeasured = "zone of inhibition at 250 µg/mL"
resultunits = "mm"
observedresult = 20

[[record]]
molsmiles = "COc1cc(/C=C/C(=O)c2ccc(N3CCNCC3)cc2)cc(OC)c1OC"
quantitymeasured = "zone of inhibition at 250 µg/mL"
resultunits = "mm"
observedresult = 6

[[record]]
molsmiles = "COc1ccc(/C=C/C(=O)c2ccc(N3CCNCC3)cc2)cc1"
quantitymeasured = "zone of inhibition at 250 µg/mL"
resultunits = "mm"
observedresult = 14

[[record]]
molsmiles = "Cc1cccc(/C=C/C(=O)c2cc(Cl)sc2Cl)c1"
quantitymeasured = "zone of inhibition at 250 µg/mL"
resultunits = "mm"
observedresult = 6

[[record]]
molsmiles = "COc1cc(/C=C/C(=O)c2cc(Cl)sc2Cl)cc(OC)c1OC"
quantitymeasured = "zone of inhibition at 250 µg/mL"
resultunits = "mm"
observedresult = 12

[[record]]
molsmiles = "O=C(/C=C/c1ccccc1)c1ccc(N2CCNCC2)cc1"
quantitymeasured = "zone of inhibition at 250 µg/mL"
resultunits = "mm"
observedresult = 20

[[record]]
molsmiles = "Cc1ccc(/C=C/C(=O)c2ccc(N3CCNCC3)cc2)cc1"
quantitymeasured = "zone of inhibition at 250 µg/mL"
resultunits = "mm"
observedresult = 14

[[record]]
molsmiles = "O=C(/C=C/c1ccc(Cl)cc1)c1ccc(N2CCNCC2)cc1"
quantitymeasured = "zone of inhibition at 250 µg/mL"
resultunits = "mm"
observedresult = 16

[[record]]
molsmiles = "O=C(/C=C/c1cccc([N+](=O)[O-])c1)c1ccc(N2CCNCC2)cc1"
quantitymeasured = "zone of inhibition at 250 µg/mL"
resultunits = "mm"
observedresult = 18

[[record]]
molsmiles = "Cc1ccc(/C=C/C(=O)c2cc(Cl)sc2Cl)cc1"
quantitymeasured = "zone of inhibition at 250 µg/mL"
resultunits = "mm"
observedresult = 9

[[record]]
molsmiles = "O=C(/C=C/C=C/c1ccccc1)c1cc(Cl)sc1Cl"
quantitymeasured = "zone of inhibition at 250 µg/mL"
resultunits = "mm"
observedresult = 11

[[record]]
molsmiles = "O=C(O)c1cn(C2CC2)c2cc(N3CCNCC3)c(F)cc2c1=O"
quantitymeasured = "zone of inhibition at 250 µg/mL"
resultunits = "mm"
observedresult = 24

[[record]]
molsmiles = "O=C(/C=C/C=C/c1ccccc1)c1ccc(N2CCNCC2)cc1"
quantitymeasured = "zone of inhibition at 250 µg/mL"
resultunits = "mm"
observedresult = 8

[[record]]
molsmiles = "O=C(/C=C/c1cccc([N+](=O)[O-])c1)c1cc(Cl)sc1Cl"
quantitymeasured = "zone of inhibition at 250 µg/mL"
resultunits = "mm"
observedresult = 18

[[record]]
molsmiles = "COc1ccc(/C=C/C(=O)c2cc(Cl)sc2Cl)cc1"
quantitymeasured = "zone of inhibition at 250 µg/mL"
resultunits = "mm"
observedresult = 14

[[record]]
molsmiles = "O=C(/C=C/c1ccccc1)c1cc(Cl)sc1Cl"
quantitymeasured = "zone of inhibition at 250 µg/mL"
resultunits = "mm"
observedresult = 22

